Target: Abl (T315I) (Homo sapiens, UniProt P00519, T315I)
Construct: purchased Upstate
Experiment: Abl (T315I) Kinase Assay (KinaseGlo luminescent detection of residual ATP)
Format: biochemical
pIC50: −log10 of the molar value.

| SMILES STRUCTURE | TARGET SYSTEM | pIC50 |
| --- | --- | --- |
| Oc1cccc(/C=C/c2cnc(Nc3cccc(N4CCNCC4)c3)s2)c1 | Abl (T315I) (Homo sapiens, UniProt P00519, T315I) | 6.42 |
| Oc1ccc(/C=C/c2cnc(Nc3cccc(OCCN4CCCC4)c3)s2)cc1 | Abl (T315I) (Homo sapiens, UniProt P00519, T315I) | 6.57 |
| Oc1cccc(/C=C/c2cnc(Nc3ccc(N4CCNCC4)cc3)s2)c1 | Abl (T315I) (Homo sapiens, UniProt P00519, T315I) | 6.81 |

Reference for the values: patent US20070161645A1
